molecular target: human Edg-1 (S1P1) (Homo sapiens); construct: expressed in transfected cells; host or cells: HEK-293; test: S1P1 binding assay: inhibition of [33P]-S1P binding to membrane fraction of HEK-293 cells transferred with the human Edg-1 (S1P1) gene; settings: test compound 10 μM; inhibition of [33P]-S1P binding, membrane fraction
Kindly state inhibition at 10 µM for each of the entries shown.

Example results:
molecularString | inhibition at 10 µM
CCCCOc1ccc(S(=O)(=O)N[C@H](C)c2nnc(Oc3cccc(N4CCN(C)CC4)c3)n2CC)cc1 | 75.5%
CCn1c(Oc2cccc(N3CCN(C)CC3)c2)nnc1[C@@H](C)NS(=O)(=O)CC1CCCCC1 | 90%
CCn1c(Oc2cccc(N3CCN(C)CC3)c2)nnc1[C@@H](C)NS(=O)(=O)c1ccc2c(c1)CCO2 | 103%

State the recorded inhibition at 10 µM for this entry: CCc1ccc(OC)c(S(=O)(=O)N[C@H](C)c2nnc(Oc3ccc4cc[nH]c4c3)n2CC)c1
87.4%

---

target: human Edg-1 (S1P1) (Homo sapiens, UniProt P21453); construct: expressed in transfected cells; host or cells: HEK-293; assay: S1P1 binding assay: inhibition of [33P]-S1P binding to membrane fraction of HEK-293 cells transferred with the human Edg-1 (S1P1) gene; conditions: test compound at 10 μM; inhibition of [33P]-S1P binding to the membrane fraction of HEK-293 cells expressing human Edg-1 (S1P1)
Sequence (P21453 whole entry): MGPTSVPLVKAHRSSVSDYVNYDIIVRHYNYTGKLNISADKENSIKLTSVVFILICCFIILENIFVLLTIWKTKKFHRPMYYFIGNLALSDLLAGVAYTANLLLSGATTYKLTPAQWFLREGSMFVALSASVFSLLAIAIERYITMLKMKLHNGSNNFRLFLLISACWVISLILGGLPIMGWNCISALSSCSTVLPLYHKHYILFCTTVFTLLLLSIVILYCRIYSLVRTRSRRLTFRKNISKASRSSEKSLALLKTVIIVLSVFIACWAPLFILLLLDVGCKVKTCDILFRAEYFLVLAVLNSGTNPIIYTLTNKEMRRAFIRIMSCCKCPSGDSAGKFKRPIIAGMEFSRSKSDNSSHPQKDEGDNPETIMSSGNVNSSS
Kindly state inhibition at 10 µM for each of the entries shown.
Please format your answer as a value with the unit trailing.

Example results:
compound | inhibition at 10 µM
CCn1c(Oc2ccc(F)cc2)nnc1[C@@H](C)NS(=O)(=O)c1ccc(OC)c(OC)c1 [Compound 170] | 76%
CCn1c(Oc2ccc(F)cc2)nnc1[C@@H](C)NS(=O)(=O)c1ccc(C(C)=O)cc1 [Compound 154] | 92.3%
CCn1c(Oc2ccc(Cl)c(Cl)c2)nnc1[C@@H](C)NS(=O)(=O)c1ccc(Cl)c(Cl)c1 [Compound 13] | 102%

Query compound follows.
State the recorded inhibition at 10 µM for this entry: CCC(NS(=O)(=O)c1ccc(Cl)c(Cl)c1)c1nnc(Oc2ccc(C)cc2)n1CC (stereo not shown) [Compound 149]
101%

---

Kindly state inhibition at 10 µM for each of the entries shown.
molecular target: human Edg-1 (S1P1) (Homo sapiens, UniProt P21453); construct: expressed in transfected cells; host or cells: HEK-293; experiment: S1P1 binding assay: inhibition of [33P]-S1P binding to membrane fraction of HEK-293 cells transferred with the human Edg-1 (S1P1) gene; conditions: test compound at 10 μM; inhibition of [33P]-S1P binding to the membrane fraction of HEK-293 cells expressing human Edg-1 (S1P1)
Give bare numbers, in %.

molecularString | experimentalSystem | units | inhibition at 10 µM
CCn1c(Oc2ccc(F)cc2)nnc1[C@@H](C)NS(=O)(=O)c1ccc(Br)c(C)c1 | human Edg-1 (S1P1) (Homo sapiens, UniProt P21453) | % | 104
CCCc1ccc(S(=O)(=O)N[C@H](C)c2nnc(Oc3ccc(F)cc3)n2CC)cc1 | human Edg-1 (S1P1) (Homo sapiens, UniProt P21453) | % | 85.4
CCn1c(Oc2ccc(F)cc2)nnc1[C@@H](C)NS(=O)(=O)c1ccc2ccccc2c1 | human Edg-1 (S1P1) (Homo sapiens, UniProt P21453) | % | 81.9
CCn1c(Oc2ccc(N3CCCCC3)cc2)nnc1[C@@H](C)NS(=O)(=O)c1ccc(Cl)c(Cl)c1 | human Edg-1 (S1P1) (Homo sapiens, UniProt P21453) | % | 96.7
CCn1c(Oc2ccc(F)cc2)nnc1[C@@H](C)NS(=O)(=O)c1c(F)cc(F)cc1Br | human Edg-1 (S1P1) (Homo sapiens, UniProt P21453) | % | 59.1

Could I get inhibition at 10 µM for every one of these entries?
1. CCn1c(Oc2ccc3cc[nH]c3c2)nnc1[C@@H](C)NS(=O)(=O)c1ccc(Cl)c(Cl)c1Cl
2. CCn1c(Oc2cccc(N3CCN(C)CC3)c2)nnc1[C@@H](C)NS(=O)(=O)c1ccc(Br)c(Br)c1

1: 101; 2: 99.2

---

molecular target: human Edg-1 (S1P1) (Homo sapiens); experiment: S1P1 binding assay: inhibition of [33P]-S1P binding to membrane fraction of HEK-293 cells transferred with the human Edg-1 (S1P1) gene; details: [33P]-S1P 0.1 nM, human Edg-1 (S1P1) HEK-293 membrane fraction, 1 h at 30° C.; read-out: IC50 (concentration at which binding in the absence of the test compound was inhibited by 50%)
Kindly state IC50 for each of the entries shown.
Numbers only, in nM.

compound | units | IC50
CCn1c(Oc2ccc3cc[nH]c3c2)nnc1[C@@H](C)NS(=O)(=O)c1ccc2ccccc2c1 [Compound 130] | nM | 2.9
CCn1c(Oc2cccc(N3CCN(C)CC3)c2)nnc1[C@@H](C)NS(=O)(=O)c1ccc2c(Cl)ccc(Cl)c2c1 [Compound 694] | nM | 2.9

Could I get IC50 for every one of these entries?
1. CCn1c(Oc2ccc(OC)cc2)nnc1[C@@H](C)NS(=O)(=O)c1ccc(Cl)c(Cl)c1 [Compound 11]
2. CCn1c(Oc2ccc(C)cc2)nnc1[C@@H](Cc1ccccc1)NS(=O)(=O)c1ccc(Cl)c(Cl)c1 [Compound 10]
3. CCn1c(Oc2ccc3cc[nH]c3c2)nnc1[C@@H](C)NS(=O)(=O)c1ccc(C(F)(F)F)cc1 [Compound 136]
4. CCn1c(Oc2ccc3cc[nH]c3c2)nnc1[C@@H](C)NS(=O)(=O)c1ccc2cccc(Cl)c2c1 [Compound 670]

[8.9, 17.5, 8.1, 5.2]

---

Kindly state inhibition at 10 µM for each of the entries shown.
biological target: human Edg-1 (S1P1) (Homo sapiens); construct: expressed in transfected cells; host or cells: HEK-293; assay: S1P1 binding assay: inhibition of [33P]-S1P binding to membrane fraction of HEK-293 cells transferred with the human Edg-1 (S1P1) gene; settings: test compound at 10 μM; inhibition of [33P]-S1P binding to the membrane fraction of HEK-293 cells expressing human Edg-1 (S1P1)
Give bare numbers, in %.

Example results:
molecularString | readoutLabel | observedValue
CCn1c(Oc2ccc3cc[nH]c3c2)nnc1[C@@H](C)NS(=O)(=O)c1ccc(Br)cc1 | inhibition at 10 µM | 101
CCn1c(Oc2ccc(F)cc2)nnc1[C@@H](C)NS(=O)(=O)c1ccc(Cl)c(Cl)c1Cl | inhibition at 10 µM | 108
CCn1c(Oc2ccc(F)cc2)nnc1[C@@H](C)NS(=O)(=O)c1cc(OC)ccc1OC | inhibition at 10 µM | 53.9

Could I get inhibition at 10 µM for every one of these entries?
1. CCn1c(Oc2ccc(F)cc2)nnc1[C@@H](C)NS(=O)(=O)c1ccc(Br)cc1F
2. CCn1c(Oc2ccc(F)cc2)nnc1[C@@H](C)NS(=O)(=O)c1cc(F)c(Cl)cc1F
3. CCn1c(Oc2ccc(OCc3ccccc3)cc2)nnc1[C@@H](C)NS(=O)(=O)c1ccc(Cl)c(Cl)c1
4. CCn1c(Oc2ccc(F)cc2)nnc1[C@@H](C)NS(=O)(=O)c1ccc(Br)cc1C

1: 85.9; 2: 90; 3: 96.7; 4: 82.9

Could I get inhibition at 10 µM for every one of these entries?
1. CCCCOc1ccc(Oc2nnc([C@@H](C)NS(=O)(=O)c3ccc(Cl)c(Cl)c3)n2CC)cc1
2. CCn1c(Oc2ccc(F)cc2)nnc1[C@@H](C)NS(=O)(=O)c1ccc(Cl)cc1
3. CCn1c(Oc2ccc(Oc3ccccc3)cc2)nnc1[C@@H](C)NS(=O)(=O)c1ccc(Cl)c(Cl)c1
4. CCn1c(Oc2cccc(NS(=O)(=O)N(C)C)c2)nnc1[C@@H](C)NS(=O)(=O)c1ccc(Cl)c(Cl)c1
5. CCn1c(Oc2ccc(F)cc2)nnc1[C@@H](C)NS(=O)(=O)c1ccc(F)cc1F

1: 96.7; 2: 109; 3: 95.4; 4: 101; 5: 51.4

Could I get inhibition at 10 µM for every one of these entries?
1. CCn1c(Oc2ccc(F)cc2)nnc1[C@@H](C)NS(=O)(=O)c1cc2ccccc2s1
2. CCn1c(Oc2ccc3cc[nH]c3c2)nnc1[C@@H](C)NS(=O)(=O)c1ccc(C(C)=O)cc1
3. CCCn1c(Oc2ccc(C)cc2)nnc1[C@@H](C)NS(=O)(=O)c1ccc(Cl)c(Cl)c1
4. CCn1c(Oc2cccc(Cl)c2)nnc1[C@@H](C)NS(=O)(=O)c1ccc(Cl)c(Cl)c1

77.9
92.3
94.3
100

---

Kindly state melting point for each of the entries shown.

compound | melting point
CCn1c(Oc2ccc3[nH]c(C)cc3c2)nnc1[C@@H](C)NS(=O)(=O)c1ccc(Cl)c(Cl)c1 [Compound 65] | 201 to 202 °C

Could I get melting point for every one of these entries?
1. CCn1c(Oc2cccc(C3CCN(C(C)C)CC3)c2)nnc1[C@@H](C)NS(=O)(=O)c1ccc(Cl)c(Cl)c1 [Compound 108]
2. CCn1c(Oc2ccc(Cl)c(C)c2)nnc1[C@@H](C)NS(=O)(=O)c1ccc(Cl)c(Cl)c1 [Compound 26]
3. CCn1c(Oc2ccc(F)c(N3CCN(C)CC3)c2)nnc1[C@@H](C)NS(=O)(=O)c1ccc(Cl)c(Cl)c1 [Compound 681]

1: 175 to 180 °C; 2: 159 to 164 °C; 3: 189 to 189.5 °C

The reported measurements were obtained from patent US8022091B2.
